Target: T1, human ACVR2A (human, UniProt P27037 20-135, limits assumed); further: test concentration or dose not given here
T1 construct: also called activin receptor, type II A
T1 sequence (P27037 20-135 limits assumed): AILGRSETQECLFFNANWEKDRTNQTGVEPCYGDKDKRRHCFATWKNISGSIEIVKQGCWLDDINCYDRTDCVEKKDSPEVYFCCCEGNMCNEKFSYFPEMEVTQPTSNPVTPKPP
Experiment: ELISA
Consider the following binders; for each one, report its optical density.

# optical density (binder: 367_C06 (antibody, V domains shown, Group II) VH: EVQLLESGGGLVQPGGSLRLSCAASGFTFDSYSMHWVRQAPGKGLEWVASINYNGGYKSYADSVKGRFTISRDNSKNTLYLQMNSLRAEDTAVYYCARAATWHDTHLDYWGQGTLVTVSS VL: DIQMTQSPSSLSASVGDRVTITCRASQSILTYLNWYQQKPGKAPKLVIYAATSLHSGVPSRFSGSGSGTDFTLTISSLQPEDFATYYCQQSYDTPLTFGGGTKVEIK ) is 2.12 OD

# optical density (binder: 369_E03 (antibody, V domains shown, Group II) VH: EVQLLESGGGLVQPGGSLRLSCAASGFTFSSYGMHWVRQAPGKGLEWVAGINYNGGYTSYADSVKGRFTISRDNSKNTLYLQMNSLRAEDTAVYYCARAATWHDTHLDYWGQGTLVTVSS VL: DIQMTQSPSSLSASVGDRVTITCRASQSILSYVNWYQQKPGKAPKLLIYAATSLASGVPSRFSGSGSGTDFTLTISSLQPEDFATYYCQQSYENPLTFGGGTKVEIK ) is 3.15 OD

# optical density (binder: 366_H04 (antibody, V domains shown, Group III) VH: EVQLLESGGGLVQPGGSLRLSCAASGFTFDSYGMNWVRQAPGKGLEWVSNINYNGGYKSYADSVKGRFTISRDNSKNTLYLQMNSLRAEDTAVYYCARGANWHDTHLDYWGQGTLVTVSS VL: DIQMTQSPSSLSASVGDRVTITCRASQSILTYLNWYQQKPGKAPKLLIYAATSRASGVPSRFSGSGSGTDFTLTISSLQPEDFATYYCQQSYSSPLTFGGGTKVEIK ) is 2.69 OD
